Provenance of the data: PubChem BioAssay AID1963852

# Tested on: 282377-053-R-J1-PDC complex spheroid viability;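 also: spheroids exposed to compounds for seven days; 100% = DMSO vehicle control viability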
# METHOD: Anticancer human tumor 282377-053-R-J1-PDC patient-derived colon adenocarcinoma cell line growth inhibition [POLQ]
# CONDITIONS: second compound 0.316 µM; first compound 0.0316 µM; hits give low values
# Method: Multicellular complex tumor spheroid response to Polymerase (POL) inhibitors (novobiocin, ART-558, RP6685) in combination with a variety of drugs and investigational agents in selected tumor cell lines The POL inhibitors (novobiocin, ART-558, and RP6685) were evaluated both individually and in combination with standard of care and investigational anticancer small molecules within a complex spheroid model of solid tumors. . […]

{"MOLECULE": "COc1cc2cc(C(=O)CCC(=O)O)sc2cc1OC + Nc1ccc(C#CCN(C(=O)Cc2ncc(C(F)(F)F)cc2C(F)(F)F)c2ccc(F)cc2)nn1", "viability, T/C / %": 103}
{"MOLECULE": "COc1cc(C2c3cc4c(cc3C(OC3OC5COC(C)OC5C(O)C3O)C3COC(=O)C23)OCO4)cc(OC)c1O (stereo not drawn) + Cc1cccc(N(C)C(=O)C2C(O)CCN2c2nc(C)cc(C(F)(F)F)c2C#N)c1", "viability, T/C / %": 108}
{"MOLECULE": "CCc1cc2c(N3CCc4c(cc(Cn5ccnc5)cc4-c4cn(C)nc4C(F)(F)F)C3=O)ccnc2c(OC)n1 + Nc1ccc(C#CCN(C(=O)Cc2ncc(C(F)(F)F)cc2C(F)(F)F)c2ccc(F)cc2)nn1", "viability, T/C / %": 90.3}
